Target: 3CLpro of SARS-CoV-2 (Severe acute respiratory syndrome coronavirus 2, UniProt P0DTD1)
Construct: The codon-optimized cDNA of full length of 3CLpro of SARS-CoV-2; 6xHis (N); made in house; pET-28a(+) vector (points to E. coli, my inference)
Test: biochemical
Format: biochemical
Settings: read-out: IC50
Measured attribute: pIC50
Formally, pIC50 is defined as -log10 of the concentration c, with c in mol/L.

Entry under test: CC(C)C[C@H](NC(=O)OCC1CCC(F)(F)CC1)C(=O)N[C@@H](C[C@@H]1CCNC1=O)C(O)S(=O)(=O)O (some centres unmarked) [Compound 10c] . Its pIC50 was 6.35

Entry under test: CC(C)C[C@H](NC(=O)OC1CCC(C)(C)CC1)C(=O)N[C@@H](C[C@@H]1CCNC1=O)C(O)S(=O)(=O)O (some centres unmarked) . Its pIC50 was 6.62
